The measurements presented in this section are drawn from patent US20060147348A1.

Assay Notes: Retention of THC in the mouth after smoking marijuana: THC in saliva and tongue mucus by quantitative GC/MS
Type: in vivo, human
Condition Parameters: human, inhaled; saliva (expectorated), 5 minutes post smoking 0.2 g of marijuana; read-out: THC Concentration, Saliva
Parameter: concentration at 5 min (ng/mL)
One number for each entry, in ng/mL.

Entry CCCCCc1cc(O)c2c(c1)OC(C)(C)[C@@H]1CCC(C)=C[C@@H]21 [THC, Tetrahydrocannabinol] , concentration at 5 min reported as 115

---

Assay Notes: Retention of THC in the mouth after smoking marijuana: THC in saliva and tongue mucus by quantitative GC/MS
Format: in vivo, human
Condition Parameters: human, inhaled; saliva (expectorated), 24 hours post smoking 0.2 g of marijuana; read-out: THC Concentration, Saliva
Parameter: concentration at 24 h

molecule CCCCCc1cc(O)c2c(c1)OC(C)(C)[C@@H]1CCC(C)=C[C@@H]21 [THC, Tetrahydrocannabinol] , concentration at 24 h observed: 2.1 ng/mL
